These measurements were taken from paper PMC3206016.

Molecular target: T1, SCRIB-34/4 (MBP fusion of the tandem of the third and fourth PDZ domains of SCRIB) (human, UniProt Q14160-1 997-1193)
T1 construct: also called MBP-PDZ analyte SCRIB-34/4; tandem PDZ construct; source: E. coli BL21 DE3, purified (amylose column, Superdex 75 gel filtration)
T1 sequence (looked up): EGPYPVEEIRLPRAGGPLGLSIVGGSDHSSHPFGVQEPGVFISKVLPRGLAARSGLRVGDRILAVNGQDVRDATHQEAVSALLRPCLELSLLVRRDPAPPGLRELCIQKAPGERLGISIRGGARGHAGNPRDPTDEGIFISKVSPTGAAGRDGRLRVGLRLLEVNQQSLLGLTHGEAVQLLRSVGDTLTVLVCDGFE
Test: SPR
Details: both partners purified
pKd: −log10 of the molar value. Ends that are not written are not given here. * marks the point of attachment. Biotin = O=C1N[C@H]2[C@H](CS[C@H]2CCCCC(=O)*)N1
Measured Property: pKd

[
  {
    "Binder": "Biotin-NRVDSKETEC (also called ADAM17 long; source: synthetic peptide (JPT Peptide Technologies))",
    "Measured Property": "pKd",
    "Assay Result": 5.10
  },
  {
    "Binder": "Biotin-SVWLRKETRV (also called CYSLTR2 long; source: synthetic peptide (JPT Peptide Technologies)) [CYSLTR2_10 (long peptide of Cysteinyl leukotriene receptor 2: the last ten residues)]",
    "Measured Property": "pKd",
    "Assay Result": 4.82
  },
  {
    "Binder": "Biotin-GSGAGICTIV (also called TTC24 short; source: synthetic peptide (JPT Peptide Technologies)) [TTC24_05 (short peptide of Tetratricopeptide repeat protein 24: GSGAG and the last five residues)]",
    "Measured Property": "pKd",
    "Assay Result": 4.60
  },
  {
    "Binder": "Biotin-GSGAGSETKM (also called GLAST short; source: synthetic peptide (JPT Peptide Technologies)) [GLAST_05 (short peptide of Excitatory amino acid transporter 1: GSGAG and the last five residues)]",
    "Measured Property": "pKd",
    "Assay Result": 3.75
  },
  {
    "Binder": "Biotin-GSGAGKETRV (also called CYSLTR2 short; source: synthetic peptide (JPT Peptide Technologies)) [CYSLTR2_05 (short peptide of Cysteinyl leukotriene receptor 2: GSGAG and the last five residues)]",
    "Measured Property": "pKd",
    "Assay Result": 5.00
  }
]
